- Measurement Target: human GABAA α1β3γ2 receptor (Homo sapiens (Human), UniProt P14867+P18507)
- Test Description: Radioligand binding assay, competition for [3H]Flumazenil, γ2-containing GABAA subtypes
Each record is given 1 if its reported Ki is strictly below 300 nM. Records at or above 300 nM are given -1.

Input: hey, is Ki for Cc1nnc2n1-c1sc3c(c1C(c1c(F)cccc1Cl)=NC2)C[C@@H](C(F)F)C3 lower than 300 nM or not?
Output: -1

Input: Strictly below 300 nM in Ki? Cc1cnc2n1-c1sc3c(c1C(c1c(F)cccc1F)=N[C@H]2C)C[C@@H](C(F)F)C3
Output: 1

Input: Lab log: compare recorded Ki with 300 nM; is it strictly lower for Cc1nnc2n1-c1sc3c(c1C(c1c(F)cccc1F)=N[C@H]2C)C[C@@H](C)C3 ?
Output: 1

Input: Lab note: Ki threshold 300 nM. Does this compound come in strictly under it? Fc1cccc(Cl)c1C1=NCc2nnc(C3CC3)n2-c2sc3c(c21)C[C@@H](C(F)F)C3
Output: -1

Input: Hello, is Ki of the following compound strictly smaller than 300 nM? Cc1nnc2n1-c1sc3c(c1C(c1c(F)cccc1F)=NC2)C[C@@H](C(F)F)C3
Output: 1

###

- Measurement Target: human GABAA α2β2γ1 receptor (Homo sapiens (Human), UniProt P47869+Q8N1C3)
- Test Description: Radioligand binding assay, competition for [3H]RO7239181, γ1-containing GABAA subtypes
- Run Conditions: read-out: Ki h-GABAA α2β2γ1; membranes from HEK293F cells, [3H]RO7239181 20-30 nM, mean of two determinations
Reported Property: Ki (nM)
Give the value in nM but do not write nM after it.

Input: # query: Ki of entry Cc1cnc2n1-c1sc3c(c1C(c1c(F)cccc1F)=N[C@H]2C)C[C@@H](C(F)F)C3
Output: 2.24

Input: Can you share its Ki? I mean this compound: Cc1nc2n(n1)-c1sc3c(c1C(c1c(F)cccc1F)=N[C@H]2C)C[C@@H](C(F)F)C3
Output: 2.3

Input: State the recorded Ki for this entry: C[C@@H]1N=C(c2c(F)cccc2F)c2c(sc3c2C[C@@H](C(F)F)C3)-n2c(CO)cnc21
Output: 2.97
